Numbers sourced from ChEMBL document CHEMBL1122781.

system: Rattus norvegicus; test: Oral dose necessary to produce an excretion of 2 mequiv of Na+/kg in the rat urine in the 4-h period after peroral administration; type: ADME, organism-based; conditions: in vivo
endpoint: ED2 (mg/kg)

# compound, system-under-test, ED2 / mg/kg
records = [
    ("CCOC(=O)COc1ccc(C(=O)c2ccc(O)c(CNO)c2)c(Cl)c1Cl.Cl", "Rattus norvegicus", 4),
    ("CCOC(=O)COc1ccc(C(=O)c2ccc(O)c(CN)c2)c2ccccc12.Cl", "Rattus norvegicus", 15),
    ("CCOC(=O)COc1ccc(C(=O)c2ccc(O)c(CN)c2)c(C)c1C.Cl", "Rattus norvegicus", 6),
    ("CCOC(=O)COc1ccc(C(=O)c2cccc(CN)c2)c(Cl)c1Cl.Cl", "Rattus norvegicus", 12),
    ("CCOC(=O)COc1ccc(C(=O)c2ccc(Cl)c(CN)c2)c(Cl)c1Cl.Cl", "Rattus norvegicus", 50),
]

a. CCOC(=O)COc1ccc(C(=O)c2cc(Cl)c(O)c(CN)c2)c(Cl)c1Cl.Cl
b. CCOC(=O)COc1ccc(C(=O)c2cc(CN(C)C)c(O)c(CN(C)C)c2)c(Cl)c1Cl.Cl
// returns a or b , whichever has the lower ED2 Indicate which entry you chose by stating its label. a

a. CCOC(=O)COc1ccc(C(=O)c2cc(I)c(O)c(CN)c2)c(Cl)c1Cl.Cl
b. CCOC(=O)COc1ccc(C(=O)c2ccc(O)c(CN)c2)c(Cl)c1Cl.Cl
// returns a or b , whichever has the lower ED2 Indicate which entry you chose by stating its label. a
(a: 1 mg/kg, b: 3 mg/kg)
